Data provenance is paper PMC9404711.

PROTOCOL_DESCRIPTION: Hydrophobicity by analytical RP-HPLC (%B at elution)
Format: physicochemical
ASSAY_SETUP: chromatographic, analytical reversed-phase HPLC, Waters Symmetry C18 5 μm 4.6 × 250 mm; A: H2O + 0.1% TFA, B: 90:10 ACN-H2O + 0.1% TFA
Non-standard residues stand in square brackets, D forms with d. Residues, ends and D or L forms follow the SMILES beside them. *: point of attachment. Lauroyl = CCCCCCCCCCCC(=O)*; Decanoyl = CCCCCCCCCC(=O)*
Strictly below 80 %B in %B (hydrophobicity: percentage of mobile phase B at the peak elution time): y. Otherwise: n.

q: Given the entry CCCCCCCCCCCC(=O)N[C@H](CCCCN)C(=O)N[C@H](CCCCN)C(=O)N[C@H](CC(C)C)C(=O)N[C@H](Cc1ccccc1)C(=O)N[C@H](CCCCN)C(=O)N[C@H](CCCCN)C(=O)N[C@@H](C(=O)N[C@H](CC(C)C)C(=O)N[C@H](CCCNC(=N)N)C(=O)N[C@H](Cc1ccc(O)cc1)C(=O)N[C@H](CC(C)C)C(N)=O)[C@H](C)CC [compound 5] (Lauroyl-[dK][dK][dL][dF][dK][dK][dI][dL][dR][dY][dL]-NH2) , would its reported %B (hydrophobicity: percentage of mobile phase B at the peak elution time) be below 80 %B?
a: n

q: Given the entry CCCCCCCCCCCCCC(=O)N[C@H](CCCCN)C(=O)N[C@H](CCCCN)C(=O)N[C@H](CC(C)C)C(=O)N[C@H](Cc1ccccc1)C(=O)N[C@H](CCCCN)C(=O)N[C@H](CCCCN)C(=O)N[C@@H](C(=O)N[C@H](CC(C)C)C(=O)N1CCCC[C@H](C(N)=O)NC(=O)[C@@H](Cc2ccc(O)cc2)NC(=O)[C@@H](CCCNC(=N)N)NC(=O)C1)[C@H](C)CC , would its reported %B (hydrophobicity: percentage of mobile phase B at the peak elution time) be below 80 %B?
a: y

q: Given the entry CC[C@@H](C)[C@@H](NC(=O)[C@@H](CCCCN)NC(=O)[C@@H](CCCCN)NC(=O)[C@@H](Cc1ccccc1)NC(=O)[C@@H](CC(C)C)NC(=O)[C@@H](CCCCN)NC(=O)[C@H](N)CCCCN)C(=O)N[C@H](CC(C)C)C(=O)N1CCCC[C@H](C(N)=O)NC(=O)[C@@H](Cc2ccc(O)cc2)NC(=O)[C@@H](CCCNC(=N)N)NC(=O)C1 , would its reported %B (hydrophobicity: percentage of mobile phase B at the peak elution time) be below 80 %B?
a: y

q: Given the entry CCCCCCCCCCCC(=O)N[C@H](CCCCN)C(=O)N[C@H](CCCCN)C(=O)N[C@H](CC(C)C)C(=O)N[C@H](Cc1ccccc1)C(=O)N[C@H](CCCCN)C(=O)N[C@H](CCCCN)C(=O)N1CCCC[C@H](C(N)=O)NC(=O)[C@@H](Cc2ccc(O)cc2)NC(=O)[C@@H](CCCNC(=N)N)NC(=O)[C@@H](CC(C)C)NC(=O)[C@@H]([C@H](C)CC)NC(=O)C1 , would its reported %B (hydrophobicity: percentage of mobile phase B at the peak elution time) be below 80 %B?
a: y

q: Given the entry CC[C@@H](C)[C@@H](NC(=O)[C@@H](CCCCN)NC(=O)[C@@H](CCCCN)NC(=O)[C@@H](Cc1ccccc1)NC(=O)[C@@H](CC(C)C)NC(=O)[C@@H](CCCCN)NC(=O)[C@H](N)CCCCN)C(=O)N[C@H](CC(C)C)C(=O)N[C@H](CCCNC(=N)N)C(=O)N[C@H](Cc1ccc(O)cc1)C(=O)N[C@H](CC(C)C)C(N)=O [BP214, reference compound] (H-[dK][dK][dL][dF][dK][dK][dI][dL][dR][dY][dL]-NH2; N-terminus assumed) , would its reported %B (hydrophobicity: percentage of mobile phase B at the peak elution time) be below 80 %B?
a: y

q: Given the entry CCCCCCCCCC(=O)N[C@H](CCCCN)C(=O)N[C@H](CCCCN)C(=O)N[C@H](CC(C)C)C(=O)N[C@H](Cc1ccccc1)C(=O)N[C@H](CCCCN)C(=O)N[C@H](CCCCN)C(=O)N[C@@H](C(=O)N[C@H](CC(C)C)C(=O)N[C@H](CCCNC(=N)N)C(=O)N[C@H](Cc1ccc(O)cc1)C(=O)N[C@H](CC(C)C)C(N)=O)[C@H](C)CC [compound 4] (Decanoyl-[dK][dK][dL][dF][dK][dK][dI][dL][dR][dY][dL]-NH2) , would its reported %B (hydrophobicity: percentage of mobile phase B at the peak elution time) be below 80 %B?
a: n

q: Given the entry CCCCCCCCCC(=O)N[C@H](CCCCN)C(=O)N[C@H](CCCCN)C(=O)N[C@H](CC(C)C)C(=O)N[C@H](Cc1ccccc1)C(=O)N[C@H](CCCCN)C(=O)N[C@H](CCCCN)C(=O)N1CCCC[C@H](C(N)=O)NC(=O)[C@@H](Cc2ccc(O)cc2)NC(=O)[C@@H](CCCNC(=N)N)NC(=O)[C@@H](CC(C)C)NC(=O)[C@@H]([C@H](C)CC)NC(=O)C1 , would its reported %B (hydrophobicity: percentage of mobile phase B at the peak elution time) be below 80 %B?
a: y

q: Given the entry CCCCCCCCCCCC(=O)N[C@H](CCCCN)C(=O)N[C@H](CCCCN)C(=O)N[C@H](CC(C)C)C(=O)N[C@H](Cc1ccccc1)C(=O)N[C@H](CCCCN)C(=O)N[C@H](CCCCN)C(=O)N[C@@H](C(=O)N1CCCC[C@H](C(N)=O)NC(=O)[C@@H](Cc2ccc(O)cc2)NC(=O)[C@@H](CCCNC(=N)N)NC(=O)[C@@H](CC(C)C)NC(=O)C1)[C@H](C)CC , would its reported %B (hydrophobicity: percentage of mobile phase B at the peak elution time) be below 80 %B?
a: y

###

Tested on: A. baumannii (ATCC 19606)
Format: cell-based, Acinetobacter baumannii
ASSAY_SETUP: value in brackets; A. baumannii ATCC 19606; MHB-II, 37 °C, 18–24 h, triplicate
Non-standard residues stand in square brackets, D forms with d. Residues, ends and D or L forms follow the SMILES beside them.
What MIC AB was measured for each of the following?
Record the value in µM, omitting the unit from your answer.

q: Entry CCCCCCCCCC(=O)N[C@H](CCCCN)C(=O)N[C@H](CCCCN)C(=O)N[C@H](CC(C)C)C(=O)N[C@H](Cc1ccccc1)C(=O)N[C@H](CCCCN)C(=O)N[C@H](CCCCN)C(=O)N[C@@H](C(=O)N1CCCC[C@H](C(N)=O)NC(=O)[C@@H](Cc2ccc(O)cc2)NC(=O)[C@@H](CCCNC(=N)N)NC(=O)[C@@H](CC(C)C)NC(=O)C1)[C@H](C)CC [compound 13] : reported MIC AB = ?
a: 1.2

q: Entry CC[C@@H](C)[C@@H](NC(=O)[C@@H](CCCCN)NC(=O)[C@@H](CCCCN)NC(=O)[C@@H](Cc1ccccc1)NC(=O)[C@@H](CC(C)C)NC(=O)[C@@H](CCCCN)NC(=O)[C@H](N)CCCCN)C(=O)N[C@H](CC(C)C)C(=O)N[C@H](CCCNC(=N)N)C(=O)N[C@H](Cc1ccc(O)cc1)C(=O)N[C@H](CC(C)C)C(N)=O [BP214, reference compound] (H-[dK][dK][dL][dF][dK][dK][dI][dL][dR][dY][dL]-NH2; N-terminus assumed) : reported MIC AB = ?
a: 1.4

###

Tested on: S. aureus (ATCC 29213)
PROTOCOL_DESCRIPTION: MIC determination, broth microdilution
Type: cell-based, Staphylococcus aureus
ASSAY_SETUP: S. aureus ATCC 29213; MHB-II, inoculum 5 × 10^5 CFU/mL, 37 °C, 18–24 h, triplicate
Non-standard residues stand in square brackets, D forms with d. Residues, ends and D or L forms follow the SMILES beside them. *: point of attachment. Lauroyl = CCCCCCCCCCCC(=O)*
What MIC SA was measured for each of the following?
Record the value in µg/mL, omitting the unit from your answer.

q: # returns recorded MIC SA (system: S. aureus (ATCC 29213)) for CCCCCCCCCCCC(=O)N[C@H](CCCCN)C(=O)N[C@H](CCCCN)C(=O)N[C@H](CC(C)C)C(=O)N[C@H](Cc1ccccc1)C(=O)N[C@H](CCCCN)C(=O)N[C@H](CCCCN)C(=O)N[C@@H](C(=O)N[C@H](CC(C)C)C(=O)N[C@H](CCCNC(=N)N)C(=O)N[C@H](Cc1ccc(O)cc1)C(=O)N[C@H](CC(C)C)C(N)=O)[C@H](C)CC [compound 5] (Lauroyl-[dK][dK][dL][dF][dK][dK][dI][dL][dR][dY][dL]-NH2)
a: 64

q: # returns recorded MIC SA (system: S. aureus (ATCC 29213)) for CCCCCCCCCC(=O)N[C@H](CCCCN)C(=O)N[C@H](CCCCN)C(=O)N[C@H](CC(C)C)C(=O)N[C@H](Cc1ccccc1)C(=O)N[C@H](CCCCN)C(=O)N[C@H](CCCCN)C(=O)N[C@@H](C(=O)N1CCCC[C@H](C(N)=O)NC(=O)[C@@H](Cc2ccc(O)cc2)NC(=O)[C@@H](CCCNC(=N)N)NC(=O)[C@@H](CC(C)C)NC(=O)C1)[C@H](C)CC [compound 13]
a: 8
